Where do these numbers come from? They come from the RNAGym collection of RNA variant scans (doi:10.7554/elife.90254).

B1: LINE1-full (parent)
chain: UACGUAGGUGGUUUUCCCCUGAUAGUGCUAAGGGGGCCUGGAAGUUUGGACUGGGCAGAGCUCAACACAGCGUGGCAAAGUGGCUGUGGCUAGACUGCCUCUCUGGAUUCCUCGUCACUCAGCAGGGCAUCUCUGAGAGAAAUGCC

# Variants of: B1
# assay overview: self-cleavage, relative activity (ratio to wild type); higher = more cleavage; in vitro, sequencing; the parent is a self-cleaving ribozyme
# reported self-cleavage; entries follow
Give the figure by itself; no unit, no explanation.

Example entries and their recorded answers appear below.
# mutation list, self-cleavage
records = [
    ("A69U A124U", 0.09),
    ("A30G U132C", 1.05),
    ("G33U C116U", 1.17),
    ("U39C G105U", 0.85),
    ("U5A G49A", 0.5),
]

Query: I am curious: what self-cleavage value has been reported for U20G G48A ?
Reply: 0.43

Query: Item C37A U143C has what recorded self-cleavage?
Reply: 0.75

Query: Looking for the measured self-cleavage of A22G A24G , can you help?
Reply: 0.98

Query: Which self-cleavage reading was recorded for the variant U12A A43G ?
Reply: 0.85

Query: Any idea what its self-cleavage is? The variant is U13C G27A
Reply: 0.85

Query: Reported self-cleavage for U87C U119G : what is it?
Reply: 0
